target.or.test.system: Glycogen synthase kinase-3 (Sus scrofa, UniProt B2LUN4+I6LNT8)
procedure.text: Inhibition of porcine brain GSK3alpha/beta assessed as [gamma-33P]ATP incorporation after 30 mins by scintillation counting
Listed here: items and their measured IC50.
measured.parameter: IC50

compound_structure=O=C1Nc2c(Br)cc([N+](=O)[O-])cc2/C1=C1/Nc2ccccc2/C1=N\O assay_value="> 10000 nM"
compound_structure=O=C1Nc2c(Br)cc([N+](=O)[O-])cc2/C1=C1/Nc2ccc(Br)cc2C1=O assay_value="> 10000 nM"
compound_structure=O=C1Nc2ccc([N+](=O)[O-])cc2/C1=C1/Nc2ccc(Br)cc2/C1=N/O assay_value="55 nM"
compound_structure=Nc1ccc2c(c1)/C(=C1/Nc3ccc(Br)cc3C1=O)C(=O)N2 assay_value="440 nM"
compound_structure=Nc1ccc2c(c1)NC(=O)/C2=C1\Nc2ccccc2\C1=N/O assay_value="180 nM"
compound_structure=O=Nc1c(-c2c(O)[nH]c3ccc([N+](=O)[O-])cc23)[nH]c2ccccc12 assay_value="2.1 nM"
compound_structure=O=C1Nc2c(Br)cc([N+](=O)[O-])cc2/C1=C1/Nc2ccccc2C1=O assay_value="> 10000 nM"

----------
Below: a set of entries, each annotated with reported IC50.
target.or.test.system: Glycogen synthase kinase-3 (Sus scrofa, UniProt B2LUN4+I6LNT8)
procedure.text: Inhibition of porcine brain GSK3alpha/beta assessed as [gamma-33P]ATP incorporation after 30 mins by scintillation counting
measured.parameter: IC50 (µM)

compound_structure=O=C1Nc2cc([N+](=O)[O-])ccc2/C1=C1/Nc2ccc(Br)cc2C1=O target_or_test_system="Glycogen synthase kinase-3 (Sus scrofa, UniProt B2LUN4+I6LNT8)" measured_parameter=IC50 sign_qualifier=> assay_value=10
compound_structure=CC(=O)Nc1ccc2c(c1)/C(=C1/Nc3ccc(Br)cc3C1=O)C(=O)N2 target_or_test_system="Glycogen synthase kinase-3 (Sus scrofa, UniProt B2LUN4+I6LNT8)" measured_parameter=IC50 sign_qualifier== assay_value=0.073
compound_structure=O=C1Nc2c(Br)cc([N+](=O)[O-])cc2/C1=C1/Nc2ccc(Br)cc2/C1=N\O target_or_test_system="Glycogen synthase kinase-3 (Sus scrofa, UniProt B2LUN4+I6LNT8)" measured_parameter=IC50 sign_qualifier=> assay_value=10
compound_structure=O=C1Nc2ccc([N+](=O)[O-])cc2/C1=C1/Nc2ccc(Br)cc2C1=O target_or_test_system="Glycogen synthase kinase-3 (Sus scrofa, UniProt B2LUN4+I6LNT8)" measured_parameter=IC50 sign_qualifier=> assay_value=10
compound_structure=O=C1C(c2c(O)[nH]c3ccc([N+](=O)[O-])cc23)=Nc2ccccc21 target_or_test_system="Glycogen synthase kinase-3 (Sus scrofa, UniProt B2LUN4+I6LNT8)" measured_parameter=IC50 sign_qualifier== assay_value=19

----------
Form field: IC50 (one value per entry).
target.or.test.system: Cyclin-dependent kinase 5/CDK5 activator 1 (Homo sapiens, UniProt Q00535)
Sequence (Q00535 whole entry): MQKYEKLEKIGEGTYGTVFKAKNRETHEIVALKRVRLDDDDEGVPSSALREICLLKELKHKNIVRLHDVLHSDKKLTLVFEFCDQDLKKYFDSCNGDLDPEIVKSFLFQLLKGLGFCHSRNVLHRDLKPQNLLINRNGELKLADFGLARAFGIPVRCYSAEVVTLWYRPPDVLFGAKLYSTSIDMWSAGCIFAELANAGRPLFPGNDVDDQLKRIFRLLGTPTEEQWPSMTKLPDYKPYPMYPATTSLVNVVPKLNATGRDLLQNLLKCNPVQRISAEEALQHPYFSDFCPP
Sequence (Q15078 whole entry, further chain): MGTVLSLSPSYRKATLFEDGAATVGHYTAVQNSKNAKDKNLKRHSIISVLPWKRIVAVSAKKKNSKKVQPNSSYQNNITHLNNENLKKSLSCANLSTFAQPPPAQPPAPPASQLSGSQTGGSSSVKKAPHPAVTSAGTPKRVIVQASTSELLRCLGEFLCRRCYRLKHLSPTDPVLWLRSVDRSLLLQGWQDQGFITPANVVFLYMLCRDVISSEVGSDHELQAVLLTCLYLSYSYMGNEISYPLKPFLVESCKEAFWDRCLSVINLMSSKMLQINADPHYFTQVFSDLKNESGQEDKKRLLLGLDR
measured.parameter: IC50

compound_structure=O=C1Nc2cc([N+](=O)[O-])ccc2/C1=C1/Nc2ccc(Br)cc2C1=O measured_parameter=IC50 assay_value="> 10 µM"
compound_structure=O=C1Nc2c(Br)cc([N+](=O)[O-])cc2/C1=C1/Nc2ccc(Br)cc2/C1=N\O measured_parameter=IC50 assay_value="> 10 µM"
compound_structure=O=Nc1c(-c2c(O)[nH]c3ccc([N+](=O)[O-])cc23)[nH]c2ccccc12 measured_parameter=IC50 assay_value="0.006 µM"
compound_structure=O=C1Nc2cc([N+](=O)[O-])ccc2/C1=C1/Nc2ccccc2C1=O measured_parameter=IC50 assay_value="> 10 µM"
